Please find below IC50 data on PKA (Homo sapiens, UniProt P17612) compiled from the literature.

Worked set:
1) Cn1nccc1-c1ccc2c(c1)CN([C@H](CN)Cc1cccc(-c3ccncc3)c1)C2=O ... > 5 µM
2) Cn1nccc1-c1ccc2c(c1)CN([C@H](CN)Cc1cccc(-c3ccsc3)c1)C2=O ... > 5 µM
3) Cc1c(Oc2ccc(CN)cc2F)ccc2c1B(O)OC2 ... 4.06 µM
4) Cn1ncc(Cl)c1-c1cc2c(cn1)C(=O)N([C@H](CN)Cc1ccccc1)C2 ... 0.5 to 5 µM

Recall the recorded IC50 for COCc1cnn(C)c1-c1ccc2c(c1)CN([C@H](CN)Cc1cc(F)cc(F)c1)C2=O with PKA (Homo sapiens, UniProt P17612) and state it.
> 5 µM

Notebook entry, PKA (Homo sapiens, UniProt P17612) assay: IC50 of Cn1nccc1-c1cc2c(cn1)C(=O)N([C@H](CN)Cc1cccc(F)c1)C2 = ?
0.5 to 5 µM

Notebook entry, PKA (Homo sapiens, UniProt P17612) assay: IC50 of Cn1ncc(Cl)c1-c1ccc2c(c1)CN([C@H](CNC1CC1)Cc1cccc(F)c1)C2=O = ?
> 5 µM

Lab note: need IC50 for Cn1nccc1-c1ccc2c(c1)CN([C@H](CN)Cc1cccnc1)C2=O on PKA (Homo sapiens, UniProt P17612), anyone have it?
> 5 µM

// map CSCc1cnn(C)c1-c1cc2c(cn1)C(=O)N([C@H](CN)Cc1cccc(F)c1)C2 to recorded IC50 (system: PKA (Homo sapiens, UniProt P17612))
> 5 µM

Report IC50 for Cn1nccc1-c1ccc2c(c1)CN([C@H](CN)Cc1cccc(-c3cncnc3)c1)C2=O tested on PKA (Homo sapiens, UniProt P17612).
> 5 µM

Item: CC(C)OCc1cnn(C)c1-c1cc2c(cn1)C(=O)N([C@H](CN)Cc1cc(F)cc(F)c1)C2 Test system: PKA (Homo sapiens, UniProt P17612) Read-out: IC50 Value: ?
> 5 µM

Provide value of IC50 for this record tested with PKA (Homo sapiens, UniProt P17612): CN(C)CC(c1ccccc1)N1Cc2cc(-c3ccnn3C)ccc2C1=O (stereo not drawn)
> 5 µM

PKA (Homo sapiens, UniProt P17612) / IC50 / Cn1ncc(Cl)c1-c1ccc2c(c1)CN([C@H](CN)Cc1cccc(-c3ccsc3)c1)C2=O : value?
> 5 µM

Find IC50 (PKA (Homo sapiens, UniProt P17612)) for the entry Cn1ncc(Cl)c1-c1ccc2c(c1)CN([C@H](CNC1CCC1)Cc1cccc(F)c1)C2=O
> 5 µM

Please tell me: IC50 of O=C(NCCCN1CCCC1)c1ccc(/C=C2\Sc3ccccc3N(Cc3ccccc3F)C2=O)cc1 , system PKA (Homo sapiens, UniProt P17612)?
> 20 µM

Entry Fc1ccccc1-c1nc(Nc2ccncc2)c2ccccc2n1 , system PKA (Homo sapiens, UniProt P17612): what IC50 was measured?
> 250 µM

Item: Cc1cnn(C)c1-c1ccc2c(c1)CN([C@H](CN)Cc1cc(F)cc(F)c1)C2=O Test system: PKA (Homo sapiens, UniProt P17612) Read-out: IC50 Value: ?
0.5 to 5 µM

API: value(readout=IC50, system=PKA (Homo sapiens, UniProt P17612)) for record CNC[C@H](Cc1cccc(F)c1)N1Cc2cc(-c3c(Cl)cnn3C)ccc2C1=O
> 5 µM

Enter reported IC50 observed with PKA (Homo sapiens, UniProt P17612) for Cn1ncc(Cl)c1-c1ccc2c(c1)CN([C@H](CNC1CCCC1)Cc1cccc(F)c1)C2=O
> 5 µM

What measured IC50 is associated with CC(N)c1ccc(Oc2ccc3c(c2)B(O)OC3)c(F)c1.Cl (stereo not drawn) on PKA (Homo sapiens, UniProt P17612)?
> 50 µM

Requested read-out IC50, target or system PKA (Homo sapiens, UniProt P17612), entry CC(C)Cn1nccc1-c1ccc2c(c1)CN([C@H](CN)Cc1cccc(F)c1)C2=O
> 5 µM

I'm curious: which IC50 was measured for Cn1ncc(COC2CCC2)c1-c1cc2c(cn1)C(=O)N([C@H](CN)Cc1cccc(F)c1)C2 tested on PKA (Homo sapiens, UniProt P17612)?
> 5 µM

// lookup IC50 | system=PKA (Homo sapiens, UniProt P17612) | key= Cn1nccc1-c1cc2c(cn1)C(=O)N([C@H](CN)CC1CCCCC1)C2
< 0.5 µM

// fetch PKA (Homo sapiens, UniProt P17612) IC50 for Cn1nccc1-c1ccc2c(c1)CN([C@H](CN)Cc1ccccc1)C2=O
> 5 µM

Any idea what IC50 came out for CSCc1cnn(C)c1-c1ccc2c(c1)CN([C@H](CN)Cc1ccccc1)C2=O on PKA (Homo sapiens, UniProt P17612)?
> 5 µM

Form field - read-out: IC50; system: PKA (Homo sapiens, UniProt P17612); submitted item: Cn1nccc1-c1ccc2c(c1)CN([C@H](CN)CC1CCCCC1)C2=O
0.5 to 5 µM

What is its IC50 for PKA (Homo sapiens, UniProt P17612)? Entry: Cn1ncc(Cl)c1-c1ccc2c(c1)CN([C@H](CN)Cc1cc(F)cc(F)c1)C2=O
0.5 to 5 µM

# get_value(readout= IC50, system= PKA (Homo sapiens, UniProt P17612)) for COCc1cnn(C)c1-c1cc2c(cn1)C(=O)N([C@H](CN)Cc1cc(F)cc(F)c1)C2
> 5 µM

Fill in the recorded IC50 for this compound, with PKA (Homo sapiens, UniProt P17612) as test system: CC(C)OCc1cnn(C)c1-c1cc2c(cn1)C(=O)N([C@H](CN)Cc1cccc(F)c1)C2
> 5 µM

API: value(readout= IC50, system= PKA (Homo sapiens, UniProt P17612), query= Cn1nccc1-c1ccc2c(c1)CN([C@H](CN)Cc1ccccn1)C2=O )
> 5 µM

Write down the reported IC50 of Cn1ncc(Cl)c1-c1ccc2c(c1)CN([C@H](CNC1CCOCC1)Cc1cccc(F)c1)C2=O , test system: PKA (Homo sapiens, UniProt P17612).
> 5 µM

Observed IC50 on PKA (Homo sapiens, UniProt P17612) for Cc1cnn(C)c1-c1cc2c(cn1)C(=O)N([C@H](CN)Cc1cc(F)cc(F)c1)C2 , please.
0.5 to 5 µM

Item Cn1ncc(C#CC(C)(C)O)c1-c1ccc2c(c1)CN([C@H](CN)Cc1cc(F)cc(F)c1)C2=O with PKA (Homo sapiens, UniProt P17612) - IC50?
> 5 µM
